# System: RARb homodimer (NR concentration 270 nM)
# Method Notes: PBM binding z-score (relative to random genomic background probes); higher = stronger binding; sequences stand for … in GC…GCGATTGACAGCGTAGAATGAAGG
Property Measured: PBM binding z-score
// no unit string in output, number only

sequence_string=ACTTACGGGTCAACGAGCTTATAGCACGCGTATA observed_result=2.92
sequence_string=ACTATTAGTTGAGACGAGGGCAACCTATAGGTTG observed_result=1.39
sequence_string=ATATGTAGGATACATCCGGGTCATTCAGGCTATG observed_result=2.18

[Q] For the sequence "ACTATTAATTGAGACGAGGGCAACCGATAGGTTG" , report PBM binding z-score.
[A] 1.56

[Q] For the sequence "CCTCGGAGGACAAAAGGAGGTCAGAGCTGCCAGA" , report PBM binding z-score.
[A] 3.07

[Q] For the sequence "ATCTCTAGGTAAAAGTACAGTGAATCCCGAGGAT" , report PBM binding z-score.
[A] -0.337

[Q] For the sequence "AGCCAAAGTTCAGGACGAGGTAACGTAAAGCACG" , report PBM binding z-score.
[A] 3.29

[Q] For the sequence "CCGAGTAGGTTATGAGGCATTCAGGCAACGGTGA" , report PBM binding z-score.
[A] 0.133

[Q] For the sequence "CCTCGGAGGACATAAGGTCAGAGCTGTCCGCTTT" , report PBM binding z-score.
[A] 3.89

[Q] For the sequence "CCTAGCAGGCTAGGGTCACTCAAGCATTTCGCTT" , report PBM binding z-score.
[A] 2.67
